Provide the recorded kcat (electron donor) for the entries that follow.
- Target desc: UniProt:Q9P8H5
- Sequence (Q9P8H5 24-785): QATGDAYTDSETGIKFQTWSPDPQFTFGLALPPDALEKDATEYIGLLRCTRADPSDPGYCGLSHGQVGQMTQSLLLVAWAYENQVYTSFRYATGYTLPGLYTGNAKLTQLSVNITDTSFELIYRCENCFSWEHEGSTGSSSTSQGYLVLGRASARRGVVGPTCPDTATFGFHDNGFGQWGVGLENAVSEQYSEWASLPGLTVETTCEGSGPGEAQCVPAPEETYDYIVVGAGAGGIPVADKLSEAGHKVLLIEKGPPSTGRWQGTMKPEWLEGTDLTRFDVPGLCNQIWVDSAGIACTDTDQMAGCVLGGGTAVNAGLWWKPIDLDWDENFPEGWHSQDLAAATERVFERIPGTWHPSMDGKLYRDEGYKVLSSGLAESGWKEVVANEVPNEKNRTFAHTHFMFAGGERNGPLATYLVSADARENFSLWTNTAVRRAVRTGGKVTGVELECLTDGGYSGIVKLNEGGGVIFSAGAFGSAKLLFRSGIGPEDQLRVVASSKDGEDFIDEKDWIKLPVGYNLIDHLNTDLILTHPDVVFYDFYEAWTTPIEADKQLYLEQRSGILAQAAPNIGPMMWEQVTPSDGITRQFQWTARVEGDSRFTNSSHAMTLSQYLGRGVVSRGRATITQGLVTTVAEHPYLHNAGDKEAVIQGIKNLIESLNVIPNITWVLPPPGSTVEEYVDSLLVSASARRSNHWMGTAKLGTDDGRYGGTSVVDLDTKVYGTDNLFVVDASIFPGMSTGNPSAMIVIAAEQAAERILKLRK
- Details: sugar + 90 μM DCPIP; 0.1M sodium phosphate buffer, pH 7.5, 40° C.; mol oxidized cellobiose/s/mol enzyme
Please give a number only; it is taken to be in s⁻¹.

Q: Specify reported kcat (electron donor) for the compound shown: CC(=O)N[C@H]1C(O)O[C@H](CO)[C@@H](O[C@@H]2O[C@H](CO)[C@H](O)[C@H](O)[C@H]2O)[C@@H]1O (stereo partly drawn) [N-Acetyllactosamine]
A: 0

Q: Specify reported kcat (electron donor) for the compound shown: OC1OC[C@@H](O[C@@H]2OC[C@@H](O)[C@H](O)[C@H]2O)[C@H](O)[C@H]1O (stereo partly drawn) [Xylobiose]
A: 2.15

Q: Specify reported kcat (electron donor) for the compound shown: OC[C@H]1O[C@@H](O[C@H]2[C@H](O)[C@@H](O)[C@H](O[C@H]3[C@H](O)[C@@H](O)[C@H](O[C@H]4[C@H](O)[C@@H](O)C(O)O[C@@H]4CO)O[C@@H]3CO)O[C@@H]2CO)[C@H](O)[C@@H](O)[C@@H]1O (stereo partly drawn) [Cellotetraose]
A: 8.5

###

- Target desc: UniProt Q9P8H5
- Details: sugar + 90 μM DCPIP; 0.1M sodium phosphate buffer, pH 7.5, 40° C.; mol oxidized cellobiose/s/mol enzyme
- Experimental: The measurements were performed in 0.1M sodium phosphate buffer at pH 7.5 at 40° C. 450 μl of a mixture of 100 μM of 2,6-Dichlorophenol-indophenol (DCPIP, Merck), 250 μM of cellobiose (Sigma) were mixed with 50 μl enzyme. […] All measurements were performed in 0.1M sodium phosphate buffer, pH 7.5, at 40° C. […] The reactions were monitored for 400 s as changes in absorbance at the appropirate wavelength (see above). […] The catalytic constants (kcat) were expressed as mol of oxidized cellobiose/s/mol of enzyme. […]
Assay readout: kcat (electron donor) (s⁻¹)
Please give a number only; it is taken to be in s⁻¹.

Q: Specify reported kcat (electron donor) for the compound shown: OC[C@H]1OC(O)[C@H](O)[C@@H](O)[C@@H]1O (stereo partly shown) [Glucose]
A: 0

Q: Specify reported kcat (electron donor) for the compound shown: CC(=O)N[C@H]1[C@H](O[C@H]2[C@H](O)[C@@H](NC(C)=O)C(O)O[C@@H]2CO)O[C@H](CO)[C@@H](O)[C@@H]1O (stereo partly shown) [N,N-Diacetylchitobiose]
A: 0

Q: Specify reported kcat (electron donor) for the compound shown: OC[C@H]1O[C@@H](O[C@H]2[C@H](O)[C@@H](O)[C@H](O[C@H]3[C@H](O)[C@@H](O)[C@H](O[C@H]4[C@H](O)[C@@H](O)[C@H](O[C@H]5[C@H](O)[C@@H](O)C(O)O[C@@H]5CO)O[C@@H]4CO)O[C@@H]3CO)O[C@@H]2CO)[C@H](O)[C@@H](O)[C@@H]1O (stereo partly shown) [Cellopentaose]
A: 8.3

Q: Specify reported kcat (electron donor) for the compound shown: OC[C@H]1O[C@@H](O[C@H]2[C@H](O)[C@@H](O)[C@H](O[C@H]3[C@H](O)[C@@H](O)C(O)O[C@@H]3CO)O[C@@H]2CO)[C@H](O)[C@@H](O)[C@@H]1O (stereo partly shown) [Cellotriose]
A: 8.5

Entry source: patent US5866392A
